Known pIC50 of a selection of molecules
# measured_on: NLRP3 (Homo sapiens)
# Sequence (Q96P20 whole entry): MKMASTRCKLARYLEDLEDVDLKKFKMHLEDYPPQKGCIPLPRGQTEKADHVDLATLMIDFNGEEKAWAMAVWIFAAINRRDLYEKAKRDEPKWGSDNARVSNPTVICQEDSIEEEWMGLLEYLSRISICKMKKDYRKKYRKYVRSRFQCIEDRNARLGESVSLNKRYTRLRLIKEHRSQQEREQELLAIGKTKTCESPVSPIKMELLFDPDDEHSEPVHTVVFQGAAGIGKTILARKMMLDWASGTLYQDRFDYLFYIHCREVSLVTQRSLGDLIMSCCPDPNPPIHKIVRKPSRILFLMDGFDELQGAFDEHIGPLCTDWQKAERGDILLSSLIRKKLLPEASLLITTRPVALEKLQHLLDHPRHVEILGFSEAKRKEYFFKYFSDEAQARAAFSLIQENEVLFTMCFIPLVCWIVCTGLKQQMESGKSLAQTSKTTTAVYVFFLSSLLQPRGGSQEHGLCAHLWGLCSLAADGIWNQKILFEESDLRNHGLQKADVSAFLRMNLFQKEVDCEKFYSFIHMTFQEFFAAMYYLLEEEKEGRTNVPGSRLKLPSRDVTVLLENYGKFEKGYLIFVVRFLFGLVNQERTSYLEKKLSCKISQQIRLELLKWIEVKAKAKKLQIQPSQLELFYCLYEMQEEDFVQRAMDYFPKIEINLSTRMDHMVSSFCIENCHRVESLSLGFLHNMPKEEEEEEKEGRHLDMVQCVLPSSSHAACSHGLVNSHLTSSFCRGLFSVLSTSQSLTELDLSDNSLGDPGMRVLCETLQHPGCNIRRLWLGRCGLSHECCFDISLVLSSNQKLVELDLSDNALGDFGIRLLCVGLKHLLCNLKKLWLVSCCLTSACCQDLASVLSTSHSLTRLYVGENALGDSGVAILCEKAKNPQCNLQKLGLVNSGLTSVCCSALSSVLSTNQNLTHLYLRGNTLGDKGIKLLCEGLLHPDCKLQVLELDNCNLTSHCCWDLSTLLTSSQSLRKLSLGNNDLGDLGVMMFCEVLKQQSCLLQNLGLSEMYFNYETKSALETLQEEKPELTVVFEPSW
# test_summary: IL-1β Secretion Assay (NLRP3-dependent IL1β secretion in THP1 cells)
# measurement_context: PMA-differentiated THP-1 cells; compounds incubated 20 h; 2.5 μM Nigericin 3 h; HTRF IL-1β readout; read-out: IC50 IL-1β Inhibition
pIC50: −log10 of the molar value.
recorded_metric: pIC50

                                    molecule        result
 0  COc1ccc(-c2nnc(N[C@H]3CCCC[C@]3(C)O)n3cccc23)c(OC(F)(F)F)c1 (single isomer, unassigned) [Compound 180]  8.00 to 9.00
 1  CCN1CCC[C@@H](Nc2nnc(-c3ccc(OC)cc3Cl)c3c(F)ccn23)C1 [Compound 82]  8.00 to 9.00
 2  COc1ccc(-c2nnc(NCc3cc[nH]n3)n3cncc23)c(OC(F)(F)F)c1 [Compound 234]  7.00 to 8.00
 3  COc1ccc(-c2nnc(N[C@@H]3CCCC[C@H]3O)n3cncc23)c(OC(F)F)c1 [Compound 270]  8.00 to 9.00
 4  O[C@H]1CCOC[C@@H]1Nc1nnc(-c2ccc(C(F)(F)F)cc2CC(F)(F)F)c2cncn12 [Compound 400]  7.00 to 8.00
 5  COc1ccc(-c2nnc(N[C@H]3C[C@@](C)(O)C3)n3nc(C)cc23)c(CC(F)(F)F)c1 [Compound 387]  8.00 to 9.00
 6  Cc1ccc(-c2nnc(N[C@@H]3CCCN(C)C3)n3cccc23)c(CC(F)(F)F)c1 [Compound 159]        > 9.00
 7  CCc1ccc(-c2nnc(N[C@@H]3CCCN(C)C3)n3cccc23)c(OC(F)(F)F)c1 [Compound 42]  8.00 to 9.00
 8  CCN1CCC[C@@H](Nc2nnc(-c3ccc(C)cc3SC)c3cc(C)nn23)C1 [Compound 367]  8.00 to 9.00
 9  Cc1ncn2c(N[C@@H]3CCCN(C)C3)nnc(-c3ccc(C(F)(F)F)cc3CC(F)(F)F)c12 [Compound 279]        > 9.00
10  COc1ccc(-c2nnc(NCc3ncco3)n3cccc23)c(OC(F)(F)F)c1 [Compound 91]  7.00 to 8.00
11  O[C@@H]1COCC[C@H]1Nc1nnc(-c2ccc(C(F)(F)F)cc2OC(F)(F)F)c2cncn12 [Compound 322]  7.00 to 8.00
12  Cc1cc2c(-c3ccc(C(F)(F)F)cc3C(F)(F)F)nnc(N[C@@H]3CCCC[C@H]3O)n2c1 [Compound 160]  8.00 to 9.00
13  FC(F)Oc1cc(C(F)(F)F)ccc1-c1nnc(N[C@@H]2CCCOC2)n2cncc12 [Compound 188]  7.00 to 8.00
14  OC[C@H]1C[C@@H](Nc2nnc(-c3ccc(C(F)(F)F)cc3C(F)(F)F)c3cncn23)C1 [Compound 257]  8.00 to 9.00
15  COc1ccc(-c2nnc(N[C@H]3C[C@@](C)(O)C3)n3cccc23)c(C(F)(F)F)c1 [Compound 71]  8.00 to 9.00
